Assay Protocol: recombinant UMI read abundance after kanamycin selection (control-corrected) (log10(CPM+1)); higher = more efficient recombination; extreme values may be limits of the assay; sequences stand for … in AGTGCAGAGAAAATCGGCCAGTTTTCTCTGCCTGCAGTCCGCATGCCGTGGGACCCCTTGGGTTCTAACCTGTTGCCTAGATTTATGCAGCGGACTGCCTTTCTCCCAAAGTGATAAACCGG…AGGTTGGTTTCACT; site = the 11-nt donor;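 also: IS621 bridge recombinase in Escherichia coli cells against a fixed T5 target plasmid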
Below, each entry is listed with its recorded recombinant UMI read abundance (log10).
Test Readout: recombinant UMI read abundance (log10)

[[record]]
sequence = "CTTCTCTCATGGACCGGTTTTCCCGGTAATCCGTATTTGTG (site CTTCTCTCTTA)"
test_result = 0

[[record]]
sequence = "CGTGGAACATGGACCGGTTTTCCCGGTAATCCGTATTTGTC (site CGTGGAACTGA)"
test_result = 1.94

[[record]]
sequence = "TCATGCTCATGGACCGGTTTTCCCGGTAATCCGTATTTGCA (site TCATGCTCTTG)"
test_result = 0.764

[[record]]
sequence = "CTTTACACATGGACCGGTTTTCCCGGTAATCCGTATTTGCT (site CTGTACACTAG)"
test_result = 1.59

[[record]]
sequence = "CAGCTCACATGGACCGGTTTTCCCGGTAATCCGTATTTGAT (site GAGCTCACTAT)"
test_result = 0.00621

[[record]]
sequence = "ACTAGAACATGGACCGGTTTTCCCGGTAATCCGTATTTGAT (site ACTAGAACTAT)"
test_result = 1.24

[[record]]
sequence = "CGCCGTACATGGACCGGTTTTCCCGGTAATCCGTATTTGTT (site CGCCGTACTAA)"
test_result = 1.23

[[record]]
sequence = "GGATAAACATGGACCGGTTTTCCCGGTAATCCGTATTTGCC (site GGATAAACTGG)"
test_result = 2.49

